pIC50 listing for selected molecules.
System Under Test: PI3Kδ (Homo sapiens (Human), UniProt O00329)
Sequence (O00329 whole entry): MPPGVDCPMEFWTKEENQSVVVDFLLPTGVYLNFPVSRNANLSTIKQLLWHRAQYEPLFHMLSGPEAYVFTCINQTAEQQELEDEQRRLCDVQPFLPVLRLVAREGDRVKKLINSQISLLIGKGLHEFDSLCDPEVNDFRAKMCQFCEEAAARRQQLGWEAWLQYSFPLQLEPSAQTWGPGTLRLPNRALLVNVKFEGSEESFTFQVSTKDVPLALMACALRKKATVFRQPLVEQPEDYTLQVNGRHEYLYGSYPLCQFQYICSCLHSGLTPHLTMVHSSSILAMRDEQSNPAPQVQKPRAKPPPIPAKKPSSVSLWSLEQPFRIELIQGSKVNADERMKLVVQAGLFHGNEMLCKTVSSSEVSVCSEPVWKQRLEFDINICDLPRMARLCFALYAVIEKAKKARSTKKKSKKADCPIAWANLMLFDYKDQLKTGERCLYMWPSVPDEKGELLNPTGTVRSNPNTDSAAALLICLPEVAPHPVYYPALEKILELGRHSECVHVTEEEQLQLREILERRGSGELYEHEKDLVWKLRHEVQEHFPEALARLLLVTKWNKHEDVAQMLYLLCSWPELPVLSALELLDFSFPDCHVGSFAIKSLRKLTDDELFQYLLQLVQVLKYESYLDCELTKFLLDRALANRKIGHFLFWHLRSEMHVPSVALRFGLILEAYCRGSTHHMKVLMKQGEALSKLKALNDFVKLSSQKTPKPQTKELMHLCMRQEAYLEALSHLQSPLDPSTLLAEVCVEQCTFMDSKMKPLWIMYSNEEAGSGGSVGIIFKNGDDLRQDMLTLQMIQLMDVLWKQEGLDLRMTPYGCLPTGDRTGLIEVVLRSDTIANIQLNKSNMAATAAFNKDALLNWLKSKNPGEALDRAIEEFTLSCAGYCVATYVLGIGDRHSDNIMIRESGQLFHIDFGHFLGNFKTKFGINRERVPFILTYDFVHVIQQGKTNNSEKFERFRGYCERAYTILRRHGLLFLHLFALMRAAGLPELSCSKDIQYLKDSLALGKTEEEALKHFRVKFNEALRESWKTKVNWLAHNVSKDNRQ
Sequence (P27986 whole entry partner): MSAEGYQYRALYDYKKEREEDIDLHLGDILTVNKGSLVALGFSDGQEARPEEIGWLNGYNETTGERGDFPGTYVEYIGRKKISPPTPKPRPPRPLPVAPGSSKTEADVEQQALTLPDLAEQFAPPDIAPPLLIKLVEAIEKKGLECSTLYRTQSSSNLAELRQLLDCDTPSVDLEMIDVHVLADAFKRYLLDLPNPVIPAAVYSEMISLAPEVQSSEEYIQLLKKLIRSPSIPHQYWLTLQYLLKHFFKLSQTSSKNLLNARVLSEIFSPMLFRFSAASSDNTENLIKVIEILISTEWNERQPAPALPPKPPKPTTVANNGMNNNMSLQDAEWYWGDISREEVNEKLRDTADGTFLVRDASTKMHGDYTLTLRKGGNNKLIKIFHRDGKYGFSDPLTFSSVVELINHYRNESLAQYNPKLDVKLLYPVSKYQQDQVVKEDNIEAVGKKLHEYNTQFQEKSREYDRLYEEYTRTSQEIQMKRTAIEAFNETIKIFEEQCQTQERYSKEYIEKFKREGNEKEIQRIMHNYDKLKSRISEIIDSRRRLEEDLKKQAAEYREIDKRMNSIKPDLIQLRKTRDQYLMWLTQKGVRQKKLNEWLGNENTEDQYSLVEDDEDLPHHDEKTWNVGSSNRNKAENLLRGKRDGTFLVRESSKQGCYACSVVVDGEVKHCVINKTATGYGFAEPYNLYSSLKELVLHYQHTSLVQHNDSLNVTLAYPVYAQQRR
Method Notes: Inhibition of PI3Kδ efficacy assay (ADP-Glo kinase assay)
Format: biochemical
Condition Notes: Table 2; read-out: PI3Kδ inhibitory activity (IC50)
The quantity pIC50 is defined as the negative base-10 logarithm of the molar concentration.

Enquiry: Form field: pIC50 recorded for C=C(F)C(=O)N1CC2(CCN(c3ncnc4ccc(-c5cnc(OC)c(NS(=O)(=O)c6ccc(F)cc6F)c5)cc34)C2)C1 [Example 60] with PI3Kδ (Homo sapiens (Human), UniProt O00329) (enter value)
Return: 7.87

Enquiry: Request body: readout pIC50, system PI3Kδ (Homo sapiens (Human), UniProt O00329), query COc1ncc(-c2ccc3ncnc(N4CCN(C(=O)/C=C/C(F)(F)F)CC4)c3c2)cc1NS(=O)(=O)c1c(F)cccc1F [Example 44] . Return the value.
Return: 7.76

Enquiry: State its pIC50 on PI3Kδ (Homo sapiens (Human), UniProt O00329): CC(=O)/C=C/C(=O)N1CCN(c2ncnc3ccc(-c4cnc(Cl)c(NS(=O)(=O)c5c(F)cc(F)cc5F)c4)cc23)CC1 [Example 89]
Return: 8.07

Enquiry: Please provide the recorded pIC50 for COc1ncc(-c2ccc3ncnc(NC4CCN(C(=O)/C=C/C(C)=O)CC4)c3c2)cc1NS(=O)(=O)c1ccc(F)cc1F [Example 130] , tested on PI3Kδ (Homo sapiens (Human), UniProt O00329).
Return: 7.82

Enquiry: Give the reported pIC50 for C=C(F)C(=O)N1CC2(CCN(c3ncnc4ccc(-c5cnc(OC)c(NS(=O)(=O)c6c(F)cccc6F)c5)cc34)C2)C1 [Example 48] (system: PI3Kδ (Homo sapiens (Human), UniProt O00329)).
Return: 7.88

Enquiry: Find pIC50 (PI3Kδ (Homo sapiens (Human), UniProt O00329)) for the entry C=C(F)C(=O)N1CCN(c2ncnc3ccc(-c4cnc(OC)c(NS(=O)(=O)c5ccc(F)cn5)c4)cc23)CC1 [Example 120]
Return: 7.94

---

System: MIA PaCa-2 cells (KRAS G12C mutant)
Method Notes: MIA PaCa-2 cell anti-proliferation (CellTiter-Glo)
Format: cell-based
Condition Notes: Homo sapiens, 72 h; MIA Paca-2 cells, 3 days, Table 7; read-out: MIA PaCa-2 (IC50)
Protocol: The number of viable cells was determined using the CellTiter-Glo® assay to evaluate the anti-proliferation efficacy of compounds. […] Data were analyzed using GraphPad Prism for IC50 values (Note: The negative control refers to the group without inhibitor).
IC50 strictly less than 60 nM = Yes. Otherwise No.

[[record]]
molecule = "COc1ncc(-c2ccc3ncnc(N4C[C@@H](C)N(C(=O)/C=C/C(C)=O)C[C@@H]4C)c3c2)cc1NS(=O)(=O)c1ccc(F)cc1F [Example 15]"
class_assignment = "No"

[[record]]
molecule = "COc1ncc(-c2ccc3ncnc(N4CCN(C(=O)/C(C#N)=C/C(C)(C)C)CC4)c3c2)cc1NS(=O)(=O)c1ccc(F)cc1F [Example 180]"
class_assignment = "Yes"

[[record]]
molecule = "COc1ncc(-c2ccc3ncnc(C4=CCN(C(=O)/C=C/C(C)=O)CC4)c3n2)cc1NS(=O)(=O)c1c(F)cc(F)cc1F [Example 236]"
class_assignment = "Yes"

[[record]]
molecule = "CC(=O)/C=C/C(=O)N1CCN(c2ncnc3ccc(-c4cnc(OC(F)(F)F)c(NS(=O)(=O)c5ccc(F)cc5F)c4)nc23)CC1 [Example 226]"
class_assignment = "No"

[[record]]
molecule = "COc1ncc(-c2ccc3ncnc(N4CCC5(CC4)CN(C(=O)/C=C/C(C)=O)C5)c3c2)cc1NS(=O)(=O)c1ccc(F)cc1F [Example 20]"
class_assignment = "No"


Enquiry: Threshold test, IC50 < 60 nM: COc1ncc(-c2ccc3ncnc(N4CCC5(CC4)CN(C(=O)/C=C/C(C)=O)C5)c3c2)cc1NS(=O)(=O)c1c(F)cc(F)cc1F [Example 101]
Return: Yes

Enquiry: Input COc1ncc(-c2ccc3ncnc(N4CCN(C(=O)/C=C/C(C)=O)CC4)c3n2)cc1NS(=O)(=O)c1c(C)cccc1F [Example 229] ; condition: IC50 strictly below 60 nM. Does it hold?
Return: Yes

Enquiry: Bench note: check whether COc1ncc(-c2ccc3ncnc(N4CCN(C(=O)/C=C/C(C)=O)CC4)c3c2)cc1NS(=O)(=O)c1ccc(F)cc1 [Example 92] shows IC50 below 60 nM
Return: Yes

Enquiry: Is IC50 of COc1ncc(-c2ccc3ncnc(C4=CCN(C(=O)/C=C/C(C)=O)CC4)c3n2)cc1NS(=O)(=O)c1sc(C)nc1C [Example 237] strictly below 60 nM?
Return: No

Enquiry: For this molecule, is IC50 lower than 60 nM? COc1ncc(-c2ccc3ncnc(N4C[C@@H](C)N(C(=O)/C=C/C(C)=O)C[C@@H]4C)c3c2)cc1NS(=O)(=O)c1c(F)cccc1F [Example 51]
Return: Yes

Enquiry: Input CC(=O)/C=C/C(=O)N1CCN(c2ncnc3ccc(-c4cnc(N(C)C)c(NS(=O)(=O)c5ccc(F)cc5F)c4)cc23)CC1 [Example 195] ; condition: IC50 strictly below 60 nM. Does it hold?
Return: No

Enquiry: Below 60 nM on IC50? Entry [2H]C([2H])([2H])Oc1ncc(-c2ccc3ncnc(N4CCN(C(=O)/C=C/C(C)=O)CC4)c3c2)cc1NS(=O)(=O)c1ccc(F)cc1F [Example 191]
Return: Yes
